- System: Staphylococcus aureus
- Assay Summary: Antibacterial activity against Staphylococcus aureus ATCC 25923 incubated for 18 to 24 hrs by broth microdilution method
- Format: functional
Where a SMILES comes first, the peptide text is derived from it.
Measured Parameter: MIC

Some entries whose results are on file:
{"columns": ["Compound", "Obs Value"],
 "data": [
  ["CC(C)C[C@H](NC(=O)[C@H](CCCNC(=N)N)NC(=O)[C@H](CCCCN)NC(=O)[C@H](Cc1c[nH]c2ccccc12)NC(=O)[C@@H](NC(=O)[C@H](CCCCN)NC(=O)[C@H](CCCCN)NC(=O)[C@H](CCCNC(=N)N)NC(=O)[C@H](CC(C)C)NC(=O)[C@H](CCCNC(=N)N)NC(=O)[C@@H](N)CCCNC(=N)N)[C@@H](C)O)C(=O)N[C@@H](Cc1c[nH]c2ccccc12)C(N)=O (H-RRLRKKTWKRLW-NH2)", "> 128 µM"],
  ["CC[C@H](C)[C@H](NC(=O)[C@H](CCCCN)NC(=O)[C@H](Cc1c[nH]c2ccccc12)NC(=O)[C@H](CCCCN)NC(=O)[C@@H](NC(=O)[C@H](CCCCN)NC(=O)[C@H](Cc1c[nH]c2ccccc12)NC(=O)[C@H](CCCCN)NC(=O)[C@@H](NC(=O)[C@H](CCCCN)NC(=O)[C@@H](N)Cc1c[nH]c2ccccc12)[C@@H](C)CC)[C@@H](C)CC)C(=O)N[C@@H](CCCCN)C(N)=O (H-WKIKWKIKWKIK-NH2)", "2 µM"],
  ["C[C@@H](O)[C@H](NC(=O)[C@H](CCCCN)NC(=O)[C@H](Cc1c[nH]c2ccccc12)NC(=O)[C@H](CCCNC(=N)N)NC(=O)[C@H](Cc1ccccc1)NC(=O)[C@H](CCCNC(=N)N)NC(=O)[C@@H](N)Cc1c[nH]c2ccccc12)C(=O)N[C@@H](CCCNC(=N)N)C(=O)N[C@@H](Cc1c[nH]c2ccccc12)C(=O)N[C@@H](CCCNC(=N)N)C(=O)N[C@@H](Cc1ccccc1)C(=O)N[C@@H](CCCCN)C(N)=O (H-WRFRWKTRWRFK-NH2)", "2 µM"]
]}

Let's switch to this compound now.
Request body: readout MIC, system Staphylococcus aureus, query CC(C)C[C@H](NC(=O)[C@H](CCCNC(=N)N)NC(=O)[C@H](CC(C)C)NC(=O)[C@H](CCCNC(=N)N)NC(=O)[C@@H](NC(=O)[C@H](CCCCN)NC(=O)[C@H](CC(C)C)NC(=O)[C@H](CCCNC(=N)N)NC(=O)[C@H](CC(C)C)NC(=O)[C@H](CCCNC(=N)N)NC(=O)[C@@H](N)CC(C)C)[C@@H](C)O)C(=O)N[C@@H](CCCCN)C(N)=O (H-LRLRLKTRLRLK-NH2) . Return the value.
32 µM
